Reference source: patent US20240317858A1

# tgt: Mouse CD3εδ Fc heterodimer (mouse) (UniProt P22646)
# method_notes: BLI (Octet), IgG avidity, pH 7.4
Form field: pKd (one value per entry).
Conceptually, pKd converts a concentration in mol/L into minus its log10.

Below, each entry is followed by its recorded pKd result.
{"binder": "Antibody No. V010 (ADI-70327) IgG1 (antibody, V domains shown) VH: QVQLVQSGAEVKKPGASVKVSCKASGFDIKDYYMHWVRQAPGQRLEWIGWIELENDDTVYDAKFQGRVTITRDTSASTAYMELSSLRSEDTAVYYCARDAYGRYFYDVWGQGTLVTVSS VL: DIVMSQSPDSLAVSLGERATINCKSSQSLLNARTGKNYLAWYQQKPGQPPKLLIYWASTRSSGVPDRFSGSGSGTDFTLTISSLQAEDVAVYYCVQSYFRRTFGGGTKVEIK", "pKd": 6.29}
{"binder": "Antibody No. V013 (ADI-70330) IgG1 (antibody, V domains shown) VH: QVQLVQSGAEVKKPGASVKVSCKASGFNIDDYYMHWVRQAPGQRLEWIGWIDLENANTVDDAKFQGRVTITRDTSASTAYMELSSLRSEDTAVYYCARDAYGRYFYDVWGQGTLVTVSS VL: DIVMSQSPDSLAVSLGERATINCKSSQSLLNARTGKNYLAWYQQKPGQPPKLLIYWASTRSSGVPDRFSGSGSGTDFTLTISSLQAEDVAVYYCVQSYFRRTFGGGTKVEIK", "pKd": 6.28}

Next binder, please.
Problem: Dear colleague, I am looking for the recorded pKd of the following binder: Antibody No. V009 (ADI-70326) IgG1 (antibody, V domains shown) VH: QVQLVQSGAEVKKPGASVKVSCKASGFDIKDYYMHWVRQAPGQRLEWIGWIELENADTVYDAKFQGRVTITRDTSASTAYMELSSLRSEDTAVYYCARDAYGRYFYDVWGQGTLVTVSS VL: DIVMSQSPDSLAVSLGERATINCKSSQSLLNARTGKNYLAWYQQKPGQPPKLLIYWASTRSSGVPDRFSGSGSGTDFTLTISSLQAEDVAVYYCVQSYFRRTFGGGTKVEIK
Result: 6.44
